B1: Pistol ribozyme (parent)
chain: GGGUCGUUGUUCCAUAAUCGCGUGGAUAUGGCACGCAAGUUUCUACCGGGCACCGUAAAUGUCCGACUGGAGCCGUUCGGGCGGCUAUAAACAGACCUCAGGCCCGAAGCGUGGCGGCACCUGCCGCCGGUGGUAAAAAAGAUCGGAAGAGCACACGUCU

Variants of: B1
Assay: aptazyme ON/OFF ratio, guanine; higher = stronger switching; co-transcriptional cleavage with and without guanine
The entries below are paired with their reported aptazyme ON/OFF ratio.
Give the figure only, with no unit attached.

Here is how some variants turned out for aptazyme ON/OFF ratio.
CHANGES	aptazyme ON/OFF ratio
U7G U8C G9C U10G U11A C12A C13U	1.25
U7C U8G U10G U11C C12A	1.34
U7A U11C C12U C13U	1.38
U7A U8C G9A U11C C12U	1.14
U7A U8G U11C C12A C13A	1.17

For the variant U7G U8G G9A U10C U11C C12G C13U , what aptazyme ON/OFF ratio is on record?
1.12

For the variant U7G U8A U10A U11C C13A , what aptazyme ON/OFF ratio is on record?
1.03

For the variant U7G U8C U10G U11G C13A , what aptazyme ON/OFF ratio is on record?
1.22

For the variant U7A U10G U11G C12G C13U , what aptazyme ON/OFF ratio is on record?
1.22

For the variant U7C U8G G9U U10C C13A , what aptazyme ON/OFF ratio is on record?
1.15

For the variant U8A G9U U10C U11G C12U C13A , what aptazyme ON/OFF ratio is on record?
1.11

For the variant U7A U8G G9A U10C U11C C12G C13G , what aptazyme ON/OFF ratio is on record?
1.09

For the variant U7C U8C U10C C12G , what aptazyme ON/OFF ratio is on record?
1.16

For the variant U7A U8C G9U U10C U11A C12U C13U , what aptazyme ON/OFF ratio is on record?
1.15
